Attribution: paper PMC7367873

System: GFP-14-3-3β and its binding proteins
Assay: GFP-14-3-3β co-IP with LC-MS/MS label-free quantification, untreated versus PP1c-treated
Set-up: species or system human
Details: PP1 vs untreated; label-free quantification
Observation Type: Difference (log2), PP1 vs untreated
Give just the number in log2; leave the unit off.

Input line: Which Difference (log2), PP1 vs untreated value is on record for TOMM22 (protein, UniProt Q9NS69 2-142, looked up) Mitochondrial import receptor …: AAAVAAAGAGEPQSPDELLPKGDAEKPEEELEEDDDEELDETLSERLWGLTEMFPERVRSAAGATFDLSLFVAQKMYRFSRAALWIGTTSFMILVLPVVFETEKLQMEQQQQLQQRQILLGPNTGLSGGMPGALPSLPGKI ?
Output line: 0.9341

Input line: Please give the measured Difference (log2), PP1 vs untreated for this molecule: SLC25A3 (protein, UniProt Q00325 50-362, looked up) Solute carrier family 25 …: AVEEQYSCDYGSGRFFILCGLGGIISCGTTHTALVPLDLVKCRMQVDPQKYKGIFNGFSVTLKEDGVRGLAKGWAPTFLGYSMQGLCKFGFYEVFKVLYSNMLGEENTYLWRTSLYLAASASAEFFADIALAPMEAAKVRIQTQPGYANTLRDAAPKMYKEEGLKAFYKGVAPLWMRQIPYTMMKFACFERTVEALYKFVVPKPRSECSKPEQLVVTFVAGYIAGVFCAIVSHPADSVVSVLNKEKGSSASLVLKRLGFKGVWKGLFARIIMIGTLTALQWFIYDSVKVYFRLPRPPPPEMPESLKKKLGLTQ
Output line: 1.025

Input line: Sample CD55 (protein, UniProt P08174 35-353, looked up) Complement decay-accelerating …: DCGLPPDVPNAQPALEGRTSFPEDTVITYKCEESFVKIPGEKDSVICLKGSQWSDIEEFCNRSCEVPTRLNSASLKQPYITQNYFPVGTVVEYECRPGYRREPSLSPKLTCLQNLKWSTAVEFCKKKSCPNPGEIRNGQIDVPGGILFGATISFSCNTGYKLFGSTSSFCLISGSSVQWSDPLPECREIYCPAPPQIDNGIIQGERDHYGYRQSVTYACNKGFTMIGEHSIYCTVNNDEGEWSGPPPECRGKSLTSKVPPTVQKPTTVNVPTTEVSPTSQKTTTKTTTPNAQATRSTPVSRTTKHFHETTPNKGSGTTS — what was its Difference (log2), PP1 vs untreated?
Output line: 1.129
